Assignment: determine reported cytotoxicity at 10 µM for the given compounds.
Assay: Toxicity liver stage against HepG2, at 10uM
Type: cell-based
Design: test concentration 10 uM, cell line HepG2-A16-CD81EGFP
Settings: human, HepG2-A16-CD81EGFP cells; read-out: INHIBITION
One number for each entry, in %.

Here's what some known entries look like.
Compound	Measured Quantity	Observed Value
C/C(=C\c1ccccc1)CN1CCCC(c2nnc3n2CCNCC3)C1 (stereo unspecified)	cytotoxicity at 10 µM	6.97
O=C1CC(c2ccsc2)c2snc(C(=O)O)c2N1 (stereo unspecified)	cytotoxicity at 10 µM	-0.772
Cc1nc(CCC(=O)N2Cc3cnc(-c4ccccc4)nc3C2)n[nH]1	cytotoxicity at 10 µM	-0.227
c1coc(CN2CCC3(CC2)COC(COCC2CCOCC2)C3)c1 (stereo unspecified)	cytotoxicity at 10 µM	4.67
CN(CCc1noc(C2CC2)n1)C(=O)C1(N2CCCC2)CCCC1	cytotoxicity at 10 µM	-146

# ---- query compound ----
Short answer for Cn1nc(CN2CCCC2)c2c1CN(C(=O)Nc1cccc(F)c1)CC2 : cytotoxicity at 10 µM was 5.98

* * *

Test: Toxicity liver stage against HepG2, at 10uM
Assay type: cell-based
Parameters: test concentration 10 uM, cell line HepG2-A16-CD81EGFP
Conditions: human, HepG2-A16-CD81EGFP cells; read-out: INHIBITION
Would you mind telling me the reported cytotoxicity at 10 µM of each entry?
One number for each entry, in %.

Compound	Observed Value
O=C(O)c1ncccc1OCC(F)(F)F	-8.76
O=C(NC1(c2nnn(CC3CCCO3)n2)CCCC1)c1ccccc1 (stereo unspecified)	13.2
Cc1ncsc1CCn1ccnc1-c1cc2n(n1)CCCNC2	-0.434
CC(C)CCN1C[C@@H]2C[C@H](C(=O)NCc3ccccc3)[C@H](C1)O2	-2
CCNC(=O)C(C)NC(=O)Nc1ccccc1Cl (stereo unspecified)	5.72

Kindly review the next compound as well.
cytotoxicity at 10 µM reported for this compound COc1ncccc1CNC(=O)c1cccnc1O : -4.02

* * *

Test: Toxicity liver stage against HepG2, at 10uM
Format: cell-based
Set-up: test concentration 10 uM, cell line HepG2-A16-CD81EGFP
Details: human, HepG2-A16-CD81EGFP cells; read-out: INHIBITION
Measured Quantity: cytotoxicity at 10 µM

Compound	cytotoxicity at 10 µM
CCNC(=O)CN(CC)Cc1nc2c(F)cccc2n1CC	9.57%
CCCC(=O)N1CCC(O)(Cn2c(CC)nc3ccccc3c2=O)CC1	-2.03%
Cc1cc(F)ccc1C(=O)N1CCN(C)C2(CCC(=O)N(C)CC2)C1 (stereo not given)	4.78%
CS(=O)(=O)N1CCOC2(CCCN(c3cnccn3)C2)C1 (stereo not given)	-3.23%
COc1ccccc1CC(=O)N1CCCC(n2nc(C)nc2C)C1 (stereo not given)	-4.47%

// for each compound below, give its cytotoxicity at 10 µM
1. O=C(CC1CC1)NCc1cn2c(n1)CN(C(=O)c1cccnc1)CC2
2. CN(C)C(=O)CN1CCC2(CCCN(Cc3cccs3)C2)C1=O (stereo not given)
3. CN1CCN(Cc2ccccc2CNC(=O)c2ccc(Br)cc2F)CC1
4. Cc1cccc(OCCC(=O)NCC2CN(C)CCO2)c1C (stereo not given)
5. CCn1nnc2c1C(COC)CN(Cc1cccs1)C2 (stereo not given)
6. Cc1ccsc1-c1nccn1CCN(C)S(C)(=O)=O
7. CN1CC(=O)N(c2ccccc2)Cc2c(NC3CC3)ncnc21
8. CC(NS(=O)(=O)CCCC#N)c1cccc(-n2cccn2)c1 (stereo not given)

// result
1. 1.03%
2. -113%
3. 4.65%
4. -6.3%
5. -16.5%
6. -7.36%
7. 6.86%
8. 1.42%
